Form field: IC50 (one value per entry).
# Measurement Target: PARG (Homo sapiens)
# Run Description: Biochemical assay (PARG, TFMU-ADPr substrate)
# Condition Details: PARG, TFMU-ADPr substrate
Measured Endpoint: IC50 (nM)

>>> df
                                   compound  unit_tag  numeric_value
0  CO[C@H]1C[C@H](C(=O)N2CCN(c3cc(S(=O)(=O)NC4(C)CC4)cn4c(-c5nnc(C(F)(F)F)s5)ncc34)CC2)C1 [Example 290]        nM           14.5
1  CN1CCC(F)(F)C1C(=O)N1CCN(c2cc(S(=O)(=O)NC3(C)CC3)cn3c(-c4nnc(C(F)(F)F)s4)ncc23)CC1 (stereo not drawn) [Example 351]        nM           4.13
2  C[C@@H]1CN(c2cc(S(=O)(=O)NC3(CF)CC3)cn3c(-c4nnc(C(F)F)s4)nnc23)CCN1C(=O)C1(C)CC1 [Example 120]        nM           1.49
3  CC1(NS(=O)(=O)c2cc(N3CCN(C4CC4)CC3)c3cnc(-c4nnc(C(F)F)s4)n3c2)COC1 [Example 364]        nM           41.4
4  CCC(=O)N1CC=C(c2cnc3c(N4CCN(C(=O)C(C)C)CC4)cc(S(=O)(=O)NC4(C#N)CC4)cn23)C1 [Example 20]        nM            178
5  C[C@H]1CN(c2cc(S(=O)(=O)NC3(C)COC3)cn3c(-c4nnc(C(F)(F)F)s4)nc(Cl)c23)C[C@H](C)N1 [Example 125]        nM           31.2

* * *

# Measurement Target: UniProtKB Q86W56
# Run Description: Biochemical assay (PARG, TFMU-ADPr substrate)
# Condition Details: PARG, TFMU-ADPr substrate
// boundary case: IC50 equal to 20 nM maps to no (0); strictly smaller maps to yes (1)

                                    molecule  label_class
 0  CC(C)OCC1CN(c2cc(S(=O)(=O)NC3(C)COC3)cn3c(-c4nnc(C(F)F)s4)nc(Cl)c23)CCN1 (centres unmarked)      yes (1)
 1  COC1(C(=O)N2CCN(c3cc(S(=O)(=O)NC4(C)CC4)cn4c(-c5nnc(C(F)F)s5)ncc34)CC2)CN(C)C1      yes (1)
 2  CC(C)C(=O)N1CCN(c2cc(S(=O)(=O)NC3(CF)CC3)cn3c(-c4nnc(C(F)F)s4)cnc23)CC1      yes (1)
 3  N#CC1(NS(=O)(=O)c2cc(N3CCC(O)C3)c3cnc(-c4nnc(C(F)F)s4)n3c2)CC1 (centres unmarked)      yes (1)
 4  N#CC1(NS(=O)(=O)c2cc(N3CCN(C(=O)C(O)C(F)(F)F)CC3)c3cnc(-c4nnc(C(F)F)s4)n3c2)CC1 (centres unmarked)       no (0)
 5  CC(C)C(=O)N1CCN(c2cc(S(=O)(=O)NC3(C#N)CC3)cn3c(-c4nnc(C(F)F)s4)ncc23)C[C@@H]1C      yes (1)
 6  [2H]C([2H])([2H])OC1(C(=O)N2CCN(c3cc(S(=O)(=O)NC4(C)COC4)cn4c(-c5nnc(C(F)(F)F)s5)ncc34)CC2)CC1      yes (1)
 7  N#CC1(NS(=O)(=O)c2cc(N3CCN(C4COC4)CC3)c3cnc(-c4nnc(C(F)F)s4)n3c2)CC1       no (0)
 8  N#CC1(NS(=O)(=O)c2cc(N3CCN(C(=O)C4CNCCN4)CC3)c3cnc(-c4nnc(C(F)(F)F)s4)n3c2)CC1 (centres unmarked)       no (0)
 9  O=S(=O)(NC1(CF)CC1)c1cc(N2CC3(COCCO3)C2)c2nnc(-c3nnc(C(F)F)s3)n2c1      yes (1)
10  CC1(NS(=O)(=O)c2cc(N3CCN4C(=O)COCC4C3)c3cnc(-c4nnc(C(F)(F)F)s4)n3c2)COC1 (centres unmarked)      yes (1)
11  C[C@@H]1CN(c2cc(S(=O)(=O)NC3(CF)CC3)cn3c(-c4nnc(C(F)F)s4)ncc23)CCN1C(=O)C1(C)CC1      yes (1)
12  CN1CCN(c2cc(S(=O)(=O)NC3(C#N)CC3)cn3c(-c4nnc(C(F)F)s4)ncc23)CC1=O       no (0)
13  C[C@H]1CN(c2cc(S(=O)(=O)NC3(C#N)CC3)cn3c(-c4nnc(C(F)F)s4)ncc23)CCN1C(=O)C1(C)CC1      yes (1)

* * *

# Measurement Target: PARG (Homo sapiens)
# Run Description: Biochemical assay (PARG, TFMU-ADPr substrate)
# Condition Details: PARG, TFMU-ADPr substrate
Classes based on IC50: band A (below 5 nM), band B (5 nM to below 20 nM), band C (20 nM or more)

                                    molecule  label_class
 0  CC1(NS(=O)(=O)c2cc(N3CCC(CO)CC3)c3nnc(-c4nnc(C(F)F)s4)n3c2)CC1 [Example 114]       band A
 1  CC(C)C(=O)N1CCN(c2c(F)c(S(=O)(=O)NC3(C#N)CC3)cn3c(-c4nnc(C(F)F)s4)ncc23)CC1 [Example 52]       band A
 2  CC(C)C(=O)N1CCN(c2cc(S(=O)(=O)NC3(C#N)CC3)cn3c(-c4nnc(CO)s4)ncc23)CC1 [Example 366]       band B
 3  N#CC1(NS(=O)(=O)c2cc(C3=CCN(S(=O)(=O)C4CC4)CC3)c3cnc(-c4nnc(C(F)(F)F)s4)n3c2)CC1 [Example 369]       band A
 4  CC(C)C(=O)N1CC2(CC=C(c3nc(-c4nnc(C(F)F)s4)n4cc(S(=O)(=O)NC5(C#N)CC5)ccc34)C2)C1 [Example 24]       band A
 5  CC(C)C(=O)N1CCN(c2cc(S(=O)(=O)N[C@H]3C[C@H]3F)cn3c(-c4nnc(C(F)F)s4)ncc23)CC1 [Example 82]       band C
 6  CC1(NS(=O)(=O)c2cc(N3CCOCC3)c3cnc(-c4nnc(C(F)F)s4)n3c2)CC1 [Example 347]       band A
 7  CC(C)C(=O)N1CCN(c2cc(S(=O)(=O)NC3(C#N)CC3)cn3c(-c4nnc(C(F)(F)F)s4)ncc23)CC1 [Example 167]       band B
 8  CN1CC(C(=O)N2CCN(c3cc(S(=O)(=O)NC4(C#N)CC4)cn4c(-c5nnc(C(F)(F)F)s5)ncc34)CC2)C1 [Example 252]       band B
 9  CN1CC(F)(C(=O)N2CCN(c3cc(S(=O)(=O)NC4(C)CC4)cn4c(-c5nnc(C(F)(F)F)s5)ncc34)CC2)C1 [Example 322]       band B
10  CC(C)(O)C1CCN(c2cc(S(=O)(=O)NC3(CF)CC3)cn3c(-c4nnc(C(F)F)s4)nnc23)CC1 [Example 109]       band C
11  N#CC1(NS(=O)(=O)c2cc(N3CCN(C(=O)[C@H]4CCNC4)CC3)c3cnc(-c4nnc(C(F)(F)F)s4)n3c2)CC1 [Example 272]       band B
12  O=S(=O)(NC1(CF)CC1)c1cc(N2CCC3(CCO3)CC2)c2nnc(-c3nnc(C(F)F)s3)n2c1 [Example 110]       band B
13  C[C@@H]1CN(c2cc(S(=O)(=O)NC3(C#N)CC3)cn3c(-c4nnc(C(F)F)s4)cnc23)CCN1C(=O)C1(C)CC1 [Example 204]       band C

* * *

# Measurement Target: PARG (Homo sapiens, UniProt Q86W56)
# Sequence (Q86W56 whole entry): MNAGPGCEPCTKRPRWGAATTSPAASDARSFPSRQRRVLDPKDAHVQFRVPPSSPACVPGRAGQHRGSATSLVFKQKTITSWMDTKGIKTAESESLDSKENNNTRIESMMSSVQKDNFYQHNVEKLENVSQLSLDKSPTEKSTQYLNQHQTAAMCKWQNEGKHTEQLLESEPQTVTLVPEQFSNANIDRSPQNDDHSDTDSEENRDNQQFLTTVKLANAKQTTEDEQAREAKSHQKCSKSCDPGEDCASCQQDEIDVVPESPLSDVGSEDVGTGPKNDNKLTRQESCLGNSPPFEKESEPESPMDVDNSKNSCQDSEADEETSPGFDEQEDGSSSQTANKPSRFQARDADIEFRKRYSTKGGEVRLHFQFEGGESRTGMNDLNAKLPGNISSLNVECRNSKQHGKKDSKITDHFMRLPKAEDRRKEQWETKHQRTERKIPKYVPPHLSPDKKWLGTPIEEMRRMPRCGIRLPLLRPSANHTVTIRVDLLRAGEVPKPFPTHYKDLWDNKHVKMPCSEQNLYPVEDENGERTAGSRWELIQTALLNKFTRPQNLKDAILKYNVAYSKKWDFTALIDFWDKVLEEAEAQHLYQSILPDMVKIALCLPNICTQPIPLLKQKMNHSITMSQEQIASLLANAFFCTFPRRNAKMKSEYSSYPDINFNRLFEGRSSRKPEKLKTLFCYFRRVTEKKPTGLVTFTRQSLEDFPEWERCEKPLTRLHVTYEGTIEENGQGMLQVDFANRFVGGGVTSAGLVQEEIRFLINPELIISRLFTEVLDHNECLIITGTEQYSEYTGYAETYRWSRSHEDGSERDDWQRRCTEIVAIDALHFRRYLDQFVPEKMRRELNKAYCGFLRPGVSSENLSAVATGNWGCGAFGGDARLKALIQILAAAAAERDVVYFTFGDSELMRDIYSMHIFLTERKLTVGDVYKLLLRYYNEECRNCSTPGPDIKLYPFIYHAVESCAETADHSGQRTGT
# Run Description: Biochemical assay (PARG, TFMU-ADPr substrate)
# Condition Details: PARG, TFMU-ADPr substrate
Measured Endpoint: IC50

In [3]: df
Out[3]:
                                   molecule   result
0  CC(C)C(=O)N1CCN(c2cc(S(=O)(=O)NC3(CO)CC3)cn3c(-c4nnc(C(F)F)s4)ncc23)CC1 [Example 37]   4.7 nM
1  CN(C)CC(=O)N1CCN(c2cc(S(=O)(=O)NC3(C#N)CC3)cn3c(-c4nnc(C(F)(F)F)s4)ncc23)CC1 [Example 250]    38 nM
2  CC(C)C(=O)N1CCN(c2cc(S(=O)(=O)NC3(C#N)CC3)cn3c(-c4nnc(C(F)F)s4)ncc23)CC1 [Example 32]  0.77 nM
3  [2H]C([2H])([2H])OC1(C(=O)N2CCN(c3cc(S(=O)(=O)NC4(C)COC4)cn4c(-c5nnc(C(F)(F)F)s5)nc(Cl)c34)CC2)CC1 [Example 129]  0.16 nM
4  CC(C)N1CC(C(=O)N2CCN(c3cc(S(=O)(=O)NC4(C#N)CC4)cn4c(-c5nnc(C(F)F)s5)ncc34)C[C@H]2C)C1 [Example 295]  39.8 nM
5  Cc1ncc2n1CCN(c1cc(S(=O)(=O)NC3(C#N)CC3)cn3c(-c4nnc(C(F)F)s4)ncc13)C2 [Example 44]  10.7 nM
